- tested system: JAK1 (Homo sapiens (Human), UniProt P23458)
- Sequence (P23458 875-1153): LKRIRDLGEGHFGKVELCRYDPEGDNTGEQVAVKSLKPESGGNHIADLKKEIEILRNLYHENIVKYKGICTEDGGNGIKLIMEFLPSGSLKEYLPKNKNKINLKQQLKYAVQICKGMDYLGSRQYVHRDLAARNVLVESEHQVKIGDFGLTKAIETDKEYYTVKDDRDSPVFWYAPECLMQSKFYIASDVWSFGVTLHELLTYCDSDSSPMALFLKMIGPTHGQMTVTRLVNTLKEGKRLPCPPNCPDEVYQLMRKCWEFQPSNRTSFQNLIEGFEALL
- run description: JAK Caliper enzyme assay at 1 mM ATP (JAK1)
- condition details: recombinant human kinase domain, Caliper mobility shift
The entries below come with measured IC50 values attached.
Write down the numeric answer in µM and omit the unit.

>>> recorded_value("Cn1cc(-c2cn3nccc3c(-c3cnn([C@]4(CC#N)C[C@@H](C#N)C4)c3)n2)c(=O)[nH]1 [Example 37]")
3.49
>>> recorded_value("C[C@H]1N(CC(F)(F)F)C[C@]1(CC#N)n1cc(-c2nc(-c3cnn(C)c3)cn3nccc23)cn1 [Example 17]")
1.73
>>> recorded_value("CCN1CC(CC#N)(n2cc(-c3nc(-c4cc(CO)[nH]n4)cn4nccc34)cn2)C1 [Example 3]")
2.29
>>> recorded_value("Cn1cc(-c2cn3nccc3c(-c3cnn([C@]4(CC#N)C[C@@H](C#N)C4)c3)n2)c(N)n1 [Example 23]")
0.431
>>> recorded_value("CO[C@H]1C[C@@](CC#N)(n2cc(-c3nc(-c4cc(CO)[nH]n4)cn4nccc34)cn2)C1 [Example 27]")
0.737

What value of measured IC50 is listed for Cn1cc(-c2cn3nccc3c(-c3cnn(C4(CC#N)CN(S(=O)(=O)C5CC5)C4)c3)n2)cn1 [Example 9] ?
0.185

Please look up its IC50: CCC(=O)N1CC(CC#N)(n2cc(-c3nc(-c4cnn(C)c4)cn4nccc34)cn2)C1 [Example 10]
5.71

Reported IC50, molecule N#CCC1(n2cc(-c3nc(-c4cc(CO)[nH]n4)cn4nccc34)cn2)CN(CC2CC2)C1 [Example 2] : ____
1.06

Which IC50 reading was recorded for the molecule Cn1cc(-c2cn3nccc3c(-c3cnn([C@]4(CC#N)C[C@H](O)C4)c3)n2)cn1 [Example 13] ?
3.23
